# experiment notes: growth modulation of vineyard yeast isolate – strain RM11-1a, OD600, basal, 24 h, primary screen (AID 1177);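 note: cultures grown under basal conditions with no added stressor; test concentration not given here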
# condition context: S. cerevisiae RM11-1a growth, OD600, 24 h; higher = more signal, called active from +8 up or from −8 down unless noted
# reported z-score; entries follow

{"compound": "OCc1ccc(C2=CC(c3cccs3)N(Cc3cccc(OC(F)(F)F)c3)CC2)cc1 (centres undefined)", "z-score": -0.449}
{"compound": "COC(=O)[C@H]1C(=O)c2ccccc2O[C@@](C(=O)OC)(c2ccccc2)[C@@H]1c1ccccc1", "z-score": 0.174}
{"compound": "COC(=O)NCC=Cc1nc(CCC=CC(=O)O[C@H]2CC3CC(=O)O[C@@H](C=CCC(C)C)C[C@@H]4CC[C@H](C)[C@@H](C[C@@H](OC)C[C@H](C2)O3)O4)co1", "z-score": -0.659}
{"compound": "CN1CCC(c2ccc(CO)cc2)=CC1C1CC1 (centres undefined)", "z-score": -0.123}

* * *

# experiment notes: probe aLefty1 binding on compound microarray – biochemical, small-molecule microarray, 635/667 nm fluorescence, primary screen (AID 1153);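 note: score merges spot fluorescence with signal-to-noise ratio from the scanned slide images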
# condition context: higher = more signal; small-molecule microarray, probe aLefty1, fluorescence unless noted
attribute measured: composite z-score

{"compound": "CCc1cc2c(nc1CC)CCN(CCC(C)=NOC)C2", "observed": 0.393}
{"compound": "COC(=O)C1(C)C=C2C(=C(C)C(=O)C2C)CN1 (stereo not drawn)", "observed": 0.257}
{"compound": "C[C@@H]1OC=C2[C@@H](O)[C@H]3O[C@H]3C(=O)[C@]23[C@H]1[C@H]1C2=C([C@@H](O)[C@H]4O[C@H]4C2=O)[C@@H]3O[C@@H]1C", "observed": -0.27}
{"compound": "CCCC[C@@H]1C[C@H]1[C@@H](NP(=O)(c1ccccc1)c1ccccc1)c1ccc(Cl)cc1", "observed": 0.337}
{"compound": "CCOC(=O)[C@H]1CC=C2C(=O)Oc3ccc(Br)cc3[C@@H]21", "observed": 0.035}
{"compound": "CCCc1cc2c(n1Cc1ccc(C)cc1)C(C)C1CN(C(=O)c3ccccc3)C(C)(C(=O)OC)C21 (stereo not drawn)", "observed": 1.33}
{"compound": "CCCc1cc2c(n1Cc1ccco1)C(C)C1CN(C(=O)c3ccccc3)C(C)(C(=O)OC)C21 (stereo not drawn)", "observed": 0.439}

* * *

# experiment notes: growth modulation of vineyard yeast isolate – strain RM11-1a, OD600, basal, 24 h, primary screen (AID 1177);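 note: cultures grown under basal conditions with no added stressor; test concentration not given here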
# condition context: S. cerevisiae RM11-1a growth, OD600, 24 h, called active from +8 up or from −8 down unless noted
Calls of active or inactive are those of the source.
Classes used: YES for active, NO for inactive

{"molecule": "c1ccc(-c2cc3c(nc2-c2ccccc2)CCNC3)cc1", "label class": "NO"}
{"molecule": "C[C@H]1O[C@H]2C3=C(C(=O)[C@@H]4O[C@@H]4[C@@H]3O)[C@@H]1[C@@H]1[C@@H](C)OC=C3[C@@H](O)[C@H]4O[C@H]4C(=O)[C@]312", "label class": "NO"}
{"molecule": "CCc1cc2c(nc1CC)CCN(CCC(C)=NOC)C2", "label class": "NO"}
{"molecule": "CCCC=C(CCC)[C@@H](NP(=O)(c1ccccc1)c1ccccc1)c1ccccc1", "label class": "NO"}
{"molecule": "C=C(CC1(CNP(=O)(c2ccccc2)c2ccccc2)CC1)c1ccccc1", "label class": "NO"}
{"molecule": "CCOC(=O)[C@H]1CC=C2C(=O)Oc3ccc(Br)cc3[C@@H]21", "label class": "YES"}
{"molecule": "COC(=O)[C@H]1[C@H](c2ccccc2)C(=O)[C@]2(O)c3ccccc3O[C@@]12c1ccccc1", "label class": "NO"}
{"molecule": "O=P(c1ccccc1)(c1ccccc1)N1CC2(CC2)CC(O)(c2ccccc2)C1 (stereo not given)", "label class": "NO"}
{"molecule": "CN1CCc2nc(CO)c(CO)cc2C1", "label class": "NO"}
{"molecule": "COC(=O)[C@H]1[C@@H](O)[C@@]2(O)c3c(OC)cc(OC)cc3O[C@@]2(c2ccc(OC)cc2)[C@@H]1c1ccccc1", "label class": "NO"}

* * *

# experiment notes: growth modulation of vineyard yeast isolate – strain RM11-1a, OD600, basal, 24 h, primary screen (AID 1177);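 note: cultures grown under basal conditions with no added stressor; test concentration not given here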
# condition context: S. cerevisiae RM11-1a growth, OD600, 24 h; higher = more signal, called active from +8 up or from −8 down unless noted
attribute measured: z-score

{"compound": "COc1cc2c(cc1O)C=[N+](C)CC2", "attribute measured": "z-score", "observed": -0.756}
{"compound": "CCCc1cc2c(n1Cc1ccco1)C(C)C1CN(C(=O)c3ccccc3)C(C)(C(=O)OC)C21 (stereo not drawn)", "attribute measured": "z-score", "observed": 0.264}
{"compound": "CCCc1cc2c(n1Cc1ccc(C)cc1)C(C)C1CN(C(=O)c3ccccc3)C(C)(C(=O)OC)C21 (stereo not drawn)", "attribute measured": "z-score", "observed": -0.654}

* * *

# study system: Fibroblast growth factor 2 (Homo sapiens) (UniProt P09038)
# Sequence (P09038 whole entry, looked up): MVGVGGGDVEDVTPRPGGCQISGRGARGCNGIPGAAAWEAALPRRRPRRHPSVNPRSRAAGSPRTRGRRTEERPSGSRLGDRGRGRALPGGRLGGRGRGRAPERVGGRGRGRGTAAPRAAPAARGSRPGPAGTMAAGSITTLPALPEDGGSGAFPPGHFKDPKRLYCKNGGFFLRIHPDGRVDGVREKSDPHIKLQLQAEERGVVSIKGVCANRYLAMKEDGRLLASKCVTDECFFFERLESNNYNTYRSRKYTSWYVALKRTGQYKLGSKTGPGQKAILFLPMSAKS
# experiment notes: basic fibroblast growth factor binding to printed compounds – biochemical, small-molecule microarray, 635/667 nm fluorescence, primary screen (AID 1133)
# condition context: FGF2, fluorescence 635/667, higher = more signal

{"compound": "CCc1cc2c(nc1CC)CCN(CCC(C)=NOC)C2", "composite z-score": 0.294}
{"compound": "CCCc1cc2c(n1Cc1ccco1)C(C)C1CN(C(=O)c3ccccc3)C(C)(C(=O)OC)C21 (stereo not drawn)", "composite z-score": -0.0321}
{"compound": "CCCC=C(CCC)[C@@H](NP(=O)(c1ccccc1)c1ccccc1)c1ccccc1", "composite z-score": 0.407}
{"compound": "COc1cc2c(cc1O)C(C)N(C)CC2 (stereo not drawn)", "composite z-score": 0.0683}
{"compound": "CN1CCC(c2ccc(CO)cc2)=CC1C1CC1 (stereo not drawn)", "composite z-score": 0.0573}
{"compound": "OCc1ccc(C2=CC(C3CC3)N(Cc3sc4ccccc4c3Cl)CC2)cc1 (stereo not drawn)", "composite z-score": 0.867}
{"compound": "CCCc1cc2c(n1Cc1cccc(Cl)c1)C(C)C1CN(C(=O)c3ccccc3)C(C)(C(=O)OC)C21 (stereo not drawn)", "composite z-score": -1.1}
{"compound": "CCCc1cc2c(n1Cc1ccc(C)cc1)C(C)C1CN(C(=O)c3ccccc3)C(C)(C(=O)OC)C21 (stereo not drawn)", "composite z-score": 0.578}
{"compound": "COc1cc2c(cc1O)C=[N+](C)CC2", "composite z-score": 1.17}
{"compound": "CN1CCc2nc(CO)c(CO)cc2C1", "composite z-score": 0.576}
{"compound": "C[C@@H]1OC=C2[C@@H](O)[C@H]3O[C@H]3C(=O)[C@]23[C@H]1[C@H]1C2=C([C@@H](O)[C@H]4O[C@H]4C2=O)[C@@H]3O[C@@H]1C", "composite z-score": 0.0979}
{"compound": "COC(=O)[C@@]1(Cc2ccc(F)cc2)[C@H]2c3cc(C(=O)N(C)C)[nH]c3C[C@H]2CN1C(=O)c1ccccc1", "composite z-score": -0.0573}
{"compound": "CCOC(=O)[C@H]1CC=C2C(=O)Oc3ccccc3[C@@H]21", "composite z-score": -0.903}
{"compound": "C=C(CC1(CNP(=O)(c2ccccc2)c2ccccc2)CC1)c1ccccc1", "composite z-score": -0.639}
{"compound": "COC(=O)NCC=Cc1nc(CCC=CC(=O)O[C@H]2CC3CC(=O)O[C@@H](C=CCC(C)C)C[C@@H]4CC[C@H](C)[C@@H](C[C@@H](OC)C[C@H](C2)O3)O4)co1", "composite z-score": -0.43}
{"compound": "COC(=O)[C@H]1[C@@H](O)[C@@]2(O)c3c(OC)cc(OC)cc3O[C@@]2(c2ccc(OC)cc2)[C@@H]1c1ccccc1", "composite z-score": 0.4}
{"compound": "C=C(CC1(C(C)NP(=O)(c2ccccc2)c2ccccc2)CC1)c1ccccc1 (stereo not drawn)", "composite z-score": -0.34}
{"compound": "COC(=O)C1(C)C=C2C(=C(C)C(=O)C2C)CN1 (stereo not drawn)", "composite z-score": -0.755}

* * *

# experiment notes: blockers of DNA damage checkpoint Chk1 activation – imaging, HeLa, hydroxyurea, phospho-Chk1 antibody, percent positive cells, primary screen (AID 1186)
# condition context: hydroxyurea-induced phospho-Chk1 immunofluorescence imaging, higher = more signal
Note to self: values exactly at 0.2 are condition met. So z-score at or above 0.2 is condition met, below is condition not met.

{"compound": "CCCc1cc2c(n1Cc1cccc(Cl)c1)C(C)C1CN(C(=O)c3ccccc3)C(C)(C(=O)OC)C21 (stereo not given)", "label class": "condition met"}
{"compound": "COc1cc2c(cc1O)C=[N+](C)CC2", "label class": "condition not met"}
{"compound": "CN1CCC(c2ccc(CO)cc2)=CC1C1CC1 (stereo not given)", "label class": "condition met"}
{"compound": "C=C(CC1(C(C)NP(=O)(c2ccccc2)c2ccccc2)CC1)c1ccccc1 (stereo not given)", "label class": "condition not met"}
{"compound": "COC(=O)C1(C)C=C2C(=C(C)C(=O)C2C)CN1 (stereo not given)", "label class": "condition met"}
{"compound": "COC(=O)[C@@]1(Cc2ccccc2)[C@H]2c3cc(C(=O)N(C)C)n(C)c3C[C@H]2CN1C(=O)c1ccccc1", "label class": "condition not met"}
{"compound": "CN1CCC(c2ccc(CO)cc2)=CC1c1cccs1 (stereo not given)", "label class": "condition not met"}
{"compound": "COC(=O)[C@@]1(Cc2ccccc2)[C@H]2c3cc(C(=O)N(C)C)[nH]c3C[C@H]2CN1C(=O)c1ccccc1", "label class": "condition not met"}
{"compound": "COc1cc2c(cc1O)C(C)N(C)CC2 (stereo not given)", "label class": "condition not met"}
{"compound": "CCCC=C(CCC)[C@@H](NP(=O)(c1ccccc1)c1ccccc1)c1ccccc1", "label class": "condition not met"}
